# TESTED_ON: CYP199A4 (Rhodopseudomonas palustris, UniProt Q2IU02)
# Sequence (Q2IU02 1-410): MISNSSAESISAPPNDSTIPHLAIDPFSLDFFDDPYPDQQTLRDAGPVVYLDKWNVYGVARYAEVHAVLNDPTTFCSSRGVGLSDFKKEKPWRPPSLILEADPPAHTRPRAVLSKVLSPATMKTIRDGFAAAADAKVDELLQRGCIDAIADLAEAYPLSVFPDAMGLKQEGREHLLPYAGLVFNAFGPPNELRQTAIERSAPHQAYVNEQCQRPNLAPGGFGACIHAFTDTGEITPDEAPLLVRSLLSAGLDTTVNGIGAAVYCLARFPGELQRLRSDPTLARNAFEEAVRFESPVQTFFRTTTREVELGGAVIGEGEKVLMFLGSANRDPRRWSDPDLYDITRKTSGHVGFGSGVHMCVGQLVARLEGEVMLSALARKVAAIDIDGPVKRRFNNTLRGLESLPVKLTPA
# TEST_DESCRIPTION: UV-vis spectral titration
QUANTITY_NAME: pKd
pKd (log units): -log10 of the concentration in mol/L.

Task item: Entry under review: "CC(=O)c1ccc(C(=O)O)cc1" . Reported pKd?
Reply: 3.85
